tested on: DMS-273; assay: NCI tumour cell line growth inhibition, 48 h
The source made the active and inactive calls. Cut-off read from the data, not from the text of the source: active = GI50 up to about 1.1 µM and inactive = higher.
assayReadout: GI50

CCOC(=O)/C(=C\c1ccc[nH]1)C(=O)c1ccccc1    26.2 µM (inactive)
O=C(Cn1ccnc1[N+](=O)[O-])N(CCO)CCO    > 1250 µM (inactive)
O=C1c2c(n(Cc3ccccc3)c(=O)n2Cc2ccccc2)C(=O)N1Cc1ccccc1    31.4 µM (inactive)
Cc1ccc(C2=NN(C)COC2C(F)(F)F)cc1 (centres undefined)    > 100 µM (inactive)

---

Item-by-item account of GI50
tested on: HOP-18; test: NCI tumour cell line growth inhibition, 48 h
The source made the active and inactive calls. No stated cut-off is given here; in the data, active = GI50 up to about 1.1 µM and inactive = higher.
assayReadout: GI50

CCCCCCCCCCCC1CC(=O)NCCCN(C)CCCCN(C)CCCN1C (centres undefined) [BUDMUNCHIAMINE A]    1.77 µM (inactive)
CC1=C2C(=O)O[C@@H](c3ccoc3)[C@]2(C)CCC1 [FRAXINELLONE]    > 100 µM (inactive)
O=C1Sc2ccccc2C(=O)N2CCSC12 (centres undefined)    25.6 µM (inactive)
COc1ccccc1NC(=O)C1=C(C)NC(C)=C(C(=O)Nc2ccccc2OC)C1c1cccc2ccccc12    76.7 µM (inactive)
